Biological target: 3-hydroxy-3-methylglutaryl-coenzyme A reductase (Rattus norvegicus)
Sequence (whole entry): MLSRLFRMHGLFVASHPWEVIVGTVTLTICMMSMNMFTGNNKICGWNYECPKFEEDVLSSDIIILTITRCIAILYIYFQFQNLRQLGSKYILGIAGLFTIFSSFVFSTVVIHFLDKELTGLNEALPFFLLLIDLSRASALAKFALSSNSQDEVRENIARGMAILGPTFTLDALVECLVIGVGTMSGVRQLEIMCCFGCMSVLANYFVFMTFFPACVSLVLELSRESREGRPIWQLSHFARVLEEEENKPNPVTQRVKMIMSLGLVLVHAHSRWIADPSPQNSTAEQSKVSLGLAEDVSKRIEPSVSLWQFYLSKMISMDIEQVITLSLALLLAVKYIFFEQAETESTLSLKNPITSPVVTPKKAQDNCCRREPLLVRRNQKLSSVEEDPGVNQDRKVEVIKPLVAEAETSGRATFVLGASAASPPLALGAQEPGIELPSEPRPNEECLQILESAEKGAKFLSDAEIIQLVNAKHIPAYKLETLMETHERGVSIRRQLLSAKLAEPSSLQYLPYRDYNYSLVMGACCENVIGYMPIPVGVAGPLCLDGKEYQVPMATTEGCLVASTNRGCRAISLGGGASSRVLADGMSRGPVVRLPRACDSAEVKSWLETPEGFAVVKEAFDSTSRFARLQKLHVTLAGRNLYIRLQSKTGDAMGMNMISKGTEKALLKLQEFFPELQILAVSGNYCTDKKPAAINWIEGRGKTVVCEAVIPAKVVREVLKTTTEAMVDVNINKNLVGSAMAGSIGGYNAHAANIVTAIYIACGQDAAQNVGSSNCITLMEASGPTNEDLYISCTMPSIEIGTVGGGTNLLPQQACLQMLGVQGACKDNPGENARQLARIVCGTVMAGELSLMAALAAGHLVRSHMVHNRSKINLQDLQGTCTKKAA
Assay: Potency against HMG-CoA reductase relative to Compactin
measurement-type: Relative potency

Use these answered entries as a reference point.
INPUT: Which measured Relative potency value corresponds to O=C1C[C@H](O)CC(CCc2c(Cl)cc(Cl)c3ccc(Cl)cc23)O1 (some centres not stated) ?
OUTPUT: 47

INPUT: Try this molecule next: O=C1C[C@H](O)C[C@@H](/C=C/c2cccc3cccc(Br)c23)O1
OUTPUT: 0.72

INPUT: Quick one: Cc1cc(Cl)c2ccc(Cl)cc2c1CCC1C[C@@H](O)CC(=O)O1 (some centres not stated)
OUTPUT: 30

INPUT: Please answer likewise for O=C1C[C@H](O)CC(CCc2ccc(Br)c3ccccc23)O1 (some centres not stated)
OUTPUT: 0.15

a = Cc1cc(Cl)c(CCC2C[C@@H](O)CC(=O)O2)c2cc(Cl)ccc12 (some centres not stated)
b = O=C1C[C@H](O)C[C@@H](/C=C/c2ccc(Br)c3ccccc23)O1
c = O=C1C[C@H](O)CC(CCc2cccc3ccccc23)O1 (some centres not stated)
d = Cc1ccc2c(C)cc(C)c(CCC3C[C@@H](O)CC(=O)O3)c2c1 (some centres not stated)
INPUT: Rank by Relative potency (largest to smallest). Answer by listing the labels in the requested order.
OUTPUT: a, d, b, c
(a: 15, d: 5, b: 0.96, c: 0.043)
